- Protocol text: Unbound fraction in human at 10 uM after 16 hrs by LC-MS/MS analysis
- Type: ADME
- Condition info: plasma
Decide by fraction unbound at 16 h, 10 µM: equal to or exceeding 0.04 means Met, less means Not met.

Molecule smiles: CCNC(=O)Nc1cc(-c2nc(C(F)(F)F)cs2)c(-c2cncc(-c3n[nH]c(=O)o3)c2)cn1
Qualitative label: Met
--
Molecule smiles: CCNC(=O)Nc1cc(-c2nc(C(F)(F)F)cs2)c(-c2cncc(-c3noc(=O)[nH]3)c2)cn1
Qualitative label: Not met
--
Molecule smiles: CCNC(=O)Nc1cc(-c2nc(C(F)(F)F)cs2)c(-c2cncc(-c3nc(C)no3)c2)cn1
Qualitative label: Met
--
Molecule smiles: CCNC(=O)Nc1cc(-c2nc(C(F)(F)F)cs2)c(-c2cncc(C#N)c2)cn1
Qualitative label: Met
--
Molecule smiles: CCNC(=O)Nc1cc(-c2nc(C(F)(F)F)cs2)c(-c2cncc(-c3c(C)noc3C)c2)cn1
Qualitative label: Met

* * *

- Protocol text: Antibacterial activity against fluoroquinolone-resistant Streptococcus pneumoniae D39 NCTC 7466 expressing GyrA S81F/ParC S79Y double mutant assessed as growth inhibition after 18 to 24 hrs by CLSI broth microdilution method
- Format: functional
Observation type: MIC (µg/mL)

Molecule smiles: C[C@H]1COc2c(N3CCN(C)CC3)c(F)cc3c(=O)c(C(=O)O)cn1c23.C[C@H]1COc2c(N3CCN(C)CC3)c(F)cc3c(=O)c(C(=O)O)cn1c23.O
Observation type: MIC
Measured result: 32

Molecule smiles: CN(C)[C@@H]1C(O)=C(C(N)=O)C(=O)[C@@]2(O)C(O)=C3C(=O)c4c(O)cccc4[C@@](C)(O)[C@H]3C[C@@H]12
Observation type: MIC
Measured result: 0.13

Molecule smiles: CO[C@@H]1[C@@H](OC(N)=O)[C@@H](O)[C@H](Oc2ccc3c(O)c(NC(=O)c4ccc(O)c(CC=C(C)C)c4)c(=O)oc3c2C)OC1(C)C
Observation type: MIC
Measured result: 0.25

Molecule smiles: CCNC(=O)Nc1cc(-c2nc(C(F)(F)F)cs2)c(-c2cncc(-c3n[nH]c(=O)o3)c2)cn1
Observation type: MIC
Measured result: 0.0025

* * *

Readings of MIC for the listed compounds
- Protocol text: Antibacterial activity against fluoroquinolone-resistant Streptococcus pneumoniae D39 NCTC 7466 expressing GyrB K143A/ParE T172A double mutant assessed as growth inhibition after 18 to 24 hrs by CLSI broth microdilution method
- Assay type: functional

Molecule smiles: CO[C@@H]1[C@@H](OC(N)=O)[C@@H](O)[C@H](Oc2ccc3c(O)c(NC(=O)c4ccc(O)c(CC=C(C)C)c4)c(=O)oc3c2C)OC1(C)C
Unit spec: µg/mL
MIC: 4

Molecule smiles: CN(C)[C@@H]1C(O)=C(C(N)=O)C(=O)[C@@]2(O)C(O)=C3C(=O)c4c(O)cccc4[C@@](C)(O)[C@H]3C[C@@H]12
Unit spec: µg/mL
MIC: 0.25

Molecule smiles: CCNC(=O)Nc1cc(-c2nc(C(F)(F)F)cs2)c(-c2cncc(-c3n[nH]c(=O)o3)c2)cn1
Unit spec: µg/mL
MIC: 0.04

Molecule smiles: C[C@H]1COc2c(N3CCN(C)CC3)c(F)cc3c(=O)c(C(=O)O)cn1c23.C[C@H]1COc2c(N3CCN(C)CC3)c(F)cc3c(=O)c(C(=O)O)cn1c23.O
Unit spec: µg/mL
MIC: 0.5

* * *

- Protocol text: Inhibition of ATPase activity in Escherichia coli ParC/ParE by ammonium molybdate/malachite green-based absorbance assay
pIC50: −log10 of the molar value.

Molecule smiles: CCNC(=O)Nc1cc(-c2nc(C(F)(F)F)cs2)c(-c2cncc(C#N)c2)cn1
pIC50: 5.96

Molecule smiles: CCNC(=O)Nc1ccc(-c2cccc(C(=O)O)c2)cn1
pIC50: 4.16

Molecule smiles: CCNC(=O)Nc1cc(-c2nc(C(F)(F)F)cs2)c(-c2ncc(C(=O)O)s2)cn1
pIC50: 6.03

Molecule smiles: CCNC(=O)Nc1cc(-c2nc(C(F)(F)F)cs2)c(-c2nc3cccc(C(=O)O)c3s2)cn1
pIC50: 6.44

Molecule smiles: CCNC(=O)Nc1ccc(-c2ncc(C(N)=O)s2)cn1
pIC50: 4.57

Molecule smiles: CCNC(=O)Nc1cc(-c2nc(C(F)(F)F)cs2)c(-c2cncc(-c3nc(C)no3)c2)cn1
pIC50: 5.85

Molecule smiles: CCNC(=O)Nc1ccc(-c2cccnc2)cn1
pIC50: 4.10

Molecule smiles: CCNC(=O)Nc1ccc(-c2nc3cccc(C(=O)O)c3s2)cn1
pIC50: 5.68

Molecule smiles: CCNC(=O)Nc1cc(Br)c(-c2cncc(C(=O)O)c2)cn1
pIC50: 5.32

Molecule smiles: CCNC(=O)Nc1ccc(-c2cncc(C(=O)O)c2)cn1
pIC50: 4.62

Molecule smiles: CCNC(=O)Nc1cc(-c2nc(C(F)(F)F)cs2)c(-c2cncc(/C(N)=N/O)c2)cn1
pIC50: 5.70

Molecule smiles: CCNC(=O)Nc1cc(-c2nc(C(C)(C)C)cs2)c(-c2cncc(C(=O)O)c2)cn1
pIC50: 5.64

Molecule smiles: CCNC(=O)Nc1cc(-c2cccnc2)c(-c2cncc(C(=O)O)c2)cn1
pIC50: 5.00

Molecule smiles: CCNC(=O)Nc1ccc(-c2ncc(C(=O)O)s2)cn1
pIC50: 5.06

Molecule smiles: CCNC(=O)Nc1cc(-c2nc(C(F)(F)F)cs2)c(-c2cncc(-c3c(C)noc3C)c2)cn1
pIC50: 5.32

Molecule smiles: CCNC(=O)Nc1cc(-c2nc(C(F)(F)F)cs2)c(-c2cncc(-c3nnn[nH]3)c2)cn1
pIC50: 6.59

Molecule smiles: CCNC(=O)Nc1cc(-c2nc(C(F)(F)F)cs2)c(-c2cncc(-c3n[nH]c(=O)o3)c2)cn1
pIC50: 6.64

* * *

- Protocol text: Clearance in rat plasma at 10 mg/kg, iv administered 15 mins of infusion measured for 0 to 24 hrs by LC-MS/MS analysis
- Format: ADME, organism-based
- Design: dose 10 mg/kg, route intravenous
Readings of clearance for the listed compounds

Molecule smiles: CCNC(=O)Nc1cc(-c2nc(C(F)(F)F)cs2)c(-c2cncc(/C(N)=N/O)c2)cn1
clearance (mL/min/kg): 22

Molecule smiles: CCNC(=O)Nc1cc(-c2nc(C(F)(F)F)cs2)c(-c2cncc(-c3n[nH]c(=O)o3)c2)cn1
clearance (mL/min/kg): 36

Molecule smiles: CCNC(=O)Nc1cc(-c2nc(C(F)(F)F)cs2)c(-c2cncc(-c3nnc(C)o3)c2)cn1
clearance (mL/min/kg): 123

Molecule smiles: CCNC(=O)Nc1cc(-c2nc(C(F)(F)F)cs2)c(-c2cncc(C(N)=O)c2)cn1
clearance (mL/min/kg): 120

Molecule smiles: CCNC(=O)Nc1cc(-c2nc(C(F)(F)F)cs2)c(-c2cncc(C#N)c2)cn1
clearance (mL/min/kg): 110

Molecule smiles: CCNC(=O)Nc1cc(-c2nc(C(F)(F)F)cs2)c(-c2cncc(-c3noc(=O)[nH]3)c2)cn1
clearance (mL/min/kg): 360

Molecule smiles: CCNC(=O)Nc1cc(-c2nc(C(F)(F)F)cs2)c(-c2cncc(-c3nc(C)no3)c2)cn1
clearance (mL/min/kg): 100

* * *

- Tested on: Staphylococcus aureus
- Protocol text: Inhibition of RNA synthesis in methicillin-sensitive wild type Staphylococcus aureus over 1 hr by [3H]uridine incorporation assay
- Type: functional, organism-based
pIC50: −log10 of the molar value.

Molecule smiles: O=C(O)c1cn(C2CC2)c2cc(N3CCNCC3)c(F)cc2c1=O
Inequality symbol: <
pIC50: 3.71

Molecule smiles: CCNC(=O)Nc1cc(-c2nc(C(F)(F)F)cs2)c(-c2cncc(C(N)=O)c2)cn1
Inequality symbol: =
pIC50: 5.16

* * *

- Test system: Streptococcus pneumoniae
- Protocol text: Inhibition of fatty acid synthesis in Streptococcus pneumoniae D39 over 1 hr by [14C]acetic acid incorporation assay
- Format: functional
- Condition info: D39, 1 h
pIC50: −log10 of the molar value.
Readings of pIC50 for the listed compounds
Observation type: pIC50

Compound: O=C(O)c1cn(C2CC2)c2cc(N3CCNCC3)c(F)cc2c1=O [CIPROFLOXACIN]
Measured result: < 3.70
//
Compound: CCNC(=O)Nc1cc(-c2nc(C(F)(F)F)cs2)c(-c2cncc(C(N)=O)c2)cn1
Measured result: < 4.70

* * *

- Protocol text: Solubility of the compound
- Assay type: physicochemical
Decide by solubility: equal to or exceeding 7 µM means Yes, less means No.

Molecule smiles: CCNC(=O)Nc1cc(-c2nc(C(F)(F)F)cs2)c(-c2cncc(-c3c(C)noc3C)c2)cn1
Qualitative label: No
--
Molecule smiles: CCNC(=O)Nc1cc(-c2nc(C(F)(F)F)cs2)c(-c2cncc(/C(N)=N/O)c2)cn1
Qualitative label: No
--
Molecule smiles: CCNC(=O)Nc1cc(-c2nc(C(F)(F)F)cs2)c(-c2cncc(C(N)=O)c2)cn1
Qualitative label: Yes
--
Molecule smiles: CCNC(=O)Nc1cc(-c2nc(C(F)(F)F)cs2)c(-c2cncc(-c3nnc(C)o3)c2)cn1
Qualitative label: No
--
Molecule smiles: CCNC(=O)Nc1cc(-c2nc(C(F)(F)F)cs2)c(-c2cncc(-c3nnn[nH]3)c2)cn1
Qualitative label: Yes
